Value source: paper PMC7156458

# target: Aβ42 (Homo sapiens, UniProt P05067)
# Sequence (P05067 672-713): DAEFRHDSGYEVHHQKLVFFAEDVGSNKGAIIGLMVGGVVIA
# assay text: Th-T (thioflavin-T) assay of Aβ42 aggregation
# Type: biochemical
# condition details: reading M114; compound at 10 (head suffix _10)
Exercise: for every item that follows, state its recorded Th-T fluorescence, mean of three wells (Fig. 7a).
Please state the value as a number alone, without comment.

Form field Th-T fluorescence, mean of three wells (Fig. 7a), entry C=C1CCC2C(C)(CCC=C(C)C)C(O)CCC2(C)C1Cc1c(OC)oc(CO)c(C(=O)OC)c1=O (centres unmarked) [Compound 13] : 1.5404

Input C=C1CCC2C(C)(CCC=C(C)C)C(O)CCC2(C)C1Cc1c(OC)oc(C)c(C(=O)OC)c1=O (centres unmarked) [Compound 14] . Output Th-T fluorescence, mean of three wells (Fig. 7a): 2.88

Record C=C1CC[C@@H]2[C@](C)(CC[C@H]3O[C@H](C=C(C)C)C[C@@]23C)[C@@H]1Cc1c(OC)oc(CO)c(C)c1=O [Compound 20] . Reported Th-T fluorescence, mean of three wells (Fig. 7a): 3.244

# compound C=C1CCC2C(C)(CCC=C(C)C)C(O)CCC2(C)C1Cc1c(OC)oc(CO)c(C)c1=O (centres unmarked) [Compound 12] ; its Th-T fluorescence, mean of three wells (Fig. 7a) = 2.644

// C=C1CC[C@@H]2[C@](C)(CC[C@H]3O[C@H](C=C(C)C)C[C@@]23C)[C@@H]1Cc1c(OC)oc(CO)c(C(=O)OC)c1=O [Compound 21] : Th-T fluorescence, mean of three wells (Fig. 7a) value = 1.656
